Test system: NCI-H460
experiment.notes: NCI tumour cell line growth inhibition, 48 h
Calls of active or inactive are those of the source. Cut-off read from the data, not from the text of the source: active = GI50 up to about 1.1 µM and inactive = higher. Where a SMILES comes first, the peptide text is derived from it. [ ]: non-standard residue; d: D form. The star is where a group is joined. mTyr = N[CH](Cc1cccc(O)c1)C(=O)O; Cbz = O=C(OCc1ccccc1)*; OBn = c1ccc(CO*)cc1
Hello, when you answer, please use one of the following outcomes: T = active, F = inactive

These solved cases illustrate the format of a correct answer.
[[record]]
compound = "COC(=O)C(Cc1cccc(O)c1)NC(=O)C(CC(=O)OCc1ccccc1)NC(=O)OCc1ccccc1 (centres undefined) (Cbz-Asp(OBn)-[mTyr]-OMe; configuration not given here)"
label = "F"

[[record]]
compound = "CCOC1=CP(=O)(OCC)CC(C)=C1Cl (centres undefined)"
label = "F"

[[record]]
compound = "N/C(=N\\Nc1nc2cc([N+](=O)[O-])ccc2o1)c1ccccn1"
label = "T"

[[record]]
compound = "C/C1=C\\CC[C@@]2(C)O[C@@H]2C[C@@H](C2(C)CO2)CC/C(C)=C/CC1 (some centres undefined)"
label = "F"


Recorded test outcome, item `CCOC(=O)N1CCC(=C2c3ccc(Cl)cc3CCc3cccnc32)CC1`
F

Recorded test outcome, item `CC1=C(N2CC2)C(=O)c2ccccc2C1=O`
T

Recorded test outcome, item `COc1cc(O)c(C(=O)/C=C/c2ccc(O)cc2)cc1Oc1ccc(C(=O)/C=C/c2ccc(O)cc2)c(O)c1`
F

Recorded test outcome, item `O=C(CN1CCCCC1)c1ccc2c(c1)Sc1ccccc1O2`
F

Recorded test outcome, item N#Cc1c(-c2ccccc2)cc(-c2ccccc2)n(C2OCC(O)C(O)C2O)c1=S (centres undefined)
F

====

System: SNB-78
experiment.notes: NCI tumour cell line growth inhibition, 48 h
The source made the active and inactive calls. Cut-off read from the data, not from the text of the source: active = GI50 up to about 1.1 µM and inactive = higher.
Give GI50 for every item shown.

[[record]]
molecule = "N#C/C(=N\\c1ccccc1N(C(=O)c1ccccc1)C(=O)c1ccccc1)c1ccccc1"
readout_label = "GI50"
observed_value = "> 91 µM (inactive)"


Please give GI50, item by item, for the list that follows.
1. C#Cc1c(C)c(/C=C/C(C)=C/C=C/C(C)=C/C(=O)OC)n(C)c1C
2. CC1(c2cc3c(cc2Br)OCO3)SCCCS1
3. CCOC(=O)NC(=O)c1cn(CCSCCOC(=O)NCCCCCCNC(=O)OCCSCCn2cc(C(=O)NC(=O)OCC)c(=O)n(C)c2=O)c(=O)n(C)c1=O
4. COC(=O)C1=C(O)C(O)=C(C(=O)OC)C1
5. CSc1nc2c(nc(N)n2C2OCC(O)C(O)C2O)c(=O)n1C (stereo not given)
6. Cc1nc2c(o1)/C(=N\c1ccccc1)c1ccccc1/C2=N/c1ccccc1
7. O=C(N[C@@H](c1ccccc1)[C@@H](O)C(=O)OCc1ccc2c(c1)OCO2)c1ccccc1

1. > 100 µM (inactive)
2. 24.3 µM (inactive)
3. > 100 µM (inactive)
4. > 100 µM (inactive)
5. > 100 µM (inactive)
6. 70.1 µM (inactive)
7. > 100 µM (inactive)

Please give GI50, item by item, for the list that follows.
1. CCOc1ccc2c(c1)[n+]([O-])c(-c1ccccc1Cl)c(N)[n+]2[O-]
2. COc1c2c(c3c(c1C1OC(C)[C@@H](C)O1)CC(C)(C)O3)C(=O)c1ccccc1C2=O (stereo not given in full)

1. > 100 µM (inactive)
2. > 100 µM (inactive)
